# targetOfAssay: Carbonic anhydrase 12 (Homo sapiens, UniProt O43570)
# Sequence (O43570 whole entry): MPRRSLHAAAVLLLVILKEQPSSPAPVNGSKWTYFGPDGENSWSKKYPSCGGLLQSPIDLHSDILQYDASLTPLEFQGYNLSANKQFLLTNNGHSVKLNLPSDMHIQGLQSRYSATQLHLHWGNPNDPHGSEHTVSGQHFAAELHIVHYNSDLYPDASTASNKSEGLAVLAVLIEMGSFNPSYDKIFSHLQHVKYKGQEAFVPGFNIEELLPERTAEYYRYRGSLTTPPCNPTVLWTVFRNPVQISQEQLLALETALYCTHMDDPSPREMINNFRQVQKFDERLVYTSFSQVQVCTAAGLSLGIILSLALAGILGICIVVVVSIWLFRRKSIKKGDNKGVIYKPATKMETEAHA
# experiment: Inhibition of recombinant human CA12 pre-incubated for 15 mins prior to testing by phenol red-based stopped-flow CO2 hydration assay
pKi: −log10 of the molar value.
Everything with pKi lower than 7 is FALSE; everything else, including exactly 7, is TRUE.

- molecule: "Cc1ccc(C(=O)CNc2cccc(S(N)(=O)=O)c2)cc1"
  targetOfAssay: "Carbonic anhydrase 12 (Homo sapiens, UniProt O43570)"
  classAssignment: "FALSE"
- molecule: "NS(=O)(=O)c1ccc(NC2CCN(c3ccccc3)C2=O)cc1 (configuration not stated)"
  targetOfAssay: "Carbonic anhydrase 12 (Homo sapiens, UniProt O43570)"
  classAssignment: "TRUE"
- molecule: "Cc1ccc(N2C(=O)C(Cc3ccc(Cl)cc3)=C(Nc3cccc(S(N)(=O)=O)c3)C2=O)cc1"
  targetOfAssay: "Carbonic anhydrase 12 (Homo sapiens, UniProt O43570)"
  classAssignment: "FALSE"
- molecule: "CCOC(=O)C(Nc1ccc(S(N)(=O)=O)cc1)C(=O)c1ccccc1 (configuration not stated)"
  targetOfAssay: "Carbonic anhydrase 12 (Homo sapiens, UniProt O43570)"
  classAssignment: "TRUE"
- molecule: "CC(C)C(C(=O)Nc1cccc(S(N)(=O)=O)c1)C(=O)c1ccccc1 (configuration not stated)"
  targetOfAssay: "Carbonic anhydrase 12 (Homo sapiens, UniProt O43570)"
  classAssignment: "TRUE"
- molecule: "COc1ccc(C(=O)CNc2cccc(S(N)(=O)=O)c2)cc1"
  targetOfAssay: "Carbonic anhydrase 12 (Homo sapiens, UniProt O43570)"
  classAssignment: "FALSE"
- molecule: "NS(=O)(=O)c1cccc(NCC(=O)N2CCN(Cc3ccc(Cl)cc3)CC2)c1"
  targetOfAssay: "Carbonic anhydrase 12 (Homo sapiens, UniProt O43570)"
  classAssignment: "TRUE"
- molecule: "NS(=O)(=O)c1ccc(NCC(=O)N2CCN(Cc3ccc(Cl)cc3)CC2)cc1"
  targetOfAssay: "Carbonic anhydrase 12 (Homo sapiens, UniProt O43570)"
  classAssignment: "TRUE"
- molecule: "COCC(=O)C(Nc1ccc(S(N)(=O)=O)cc1)C(=O)OC (configuration not stated)"
  targetOfAssay: "Carbonic anhydrase 12 (Homo sapiens, UniProt O43570)"
  classAssignment: "TRUE"
- molecule: "CCOC(=O)C(Nc1ccc(S(N)(=O)=O)cc1)C(=O)OCC"
  targetOfAssay: "Carbonic anhydrase 12 (Homo sapiens, UniProt O43570)"
  classAssignment: "TRUE"
- molecule: "CCN(CC)C(=O)CNc1ccc(S(N)(=O)=O)cc1"
  targetOfAssay: "Carbonic anhydrase 12 (Homo sapiens, UniProt O43570)"
  classAssignment: "TRUE"
- molecule: "NS(=O)(=O)c1ccc(NC2CCCCCC2=O)cc1 (configuration not stated)"
  targetOfAssay: "Carbonic anhydrase 12 (Homo sapiens, UniProt O43570)"
  classAssignment: "TRUE"
- molecule: "COCCOC(=O)C(Nc1ccc(S(N)(=O)=O)cc1)C(=O)OCCOC"
  targetOfAssay: "Carbonic anhydrase 12 (Homo sapiens, UniProt O43570)"
  classAssignment: "TRUE"
- molecule: "CCOC(=O)C(Nc1ccc(S(N)(=O)=O)cc1)c1ccc(OC)c(OC)c1 (configuration not stated)"
  targetOfAssay: "Carbonic anhydrase 12 (Homo sapiens, UniProt O43570)"
  classAssignment: "TRUE"
